Target: human D2L receptors (Homo sapiens, UniProt P14416)
Sequence (P14416 whole entry): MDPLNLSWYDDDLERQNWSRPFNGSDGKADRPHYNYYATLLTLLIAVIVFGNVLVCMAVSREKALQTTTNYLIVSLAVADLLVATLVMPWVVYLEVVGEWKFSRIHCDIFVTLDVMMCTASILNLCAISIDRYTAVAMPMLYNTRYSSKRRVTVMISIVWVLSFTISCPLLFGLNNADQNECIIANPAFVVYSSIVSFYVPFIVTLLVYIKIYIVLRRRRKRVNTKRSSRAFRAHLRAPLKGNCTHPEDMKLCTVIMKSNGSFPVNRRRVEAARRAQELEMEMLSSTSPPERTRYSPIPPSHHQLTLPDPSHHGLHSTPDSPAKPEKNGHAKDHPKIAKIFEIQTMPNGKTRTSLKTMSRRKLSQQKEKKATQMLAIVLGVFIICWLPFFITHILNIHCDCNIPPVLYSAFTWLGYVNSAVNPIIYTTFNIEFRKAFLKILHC
Test: Competition kinetic binding with PPHT-red tracer (TR-FRET, Motulsky-Mahan)
Settings: 37 °C, 100 μM GppNHp, 12.5 nM PPHT-red tracer, CHO-D2L membranes; mean ± s.e.m., four experiments
Where a name gives a salt, the structure may show the parent alone.
EXPERIMENTAL READOUT: k off (s⁻¹)

I: Cc1nc2n(c(=O)c1CCN1CCC(c3noc4cc(F)ccc34)CC1)CCCC2O (stereo not shown)
II: CCc1c(C)[nH]c2c1C(=O)C(CN1CCOCC1)CC2 (stereo not shown) [Molindone, molindone hydrochloride]
III: OCCN1CCN(CCCN2c3ccccc3Sc3ccc(Cl)cc32)CC1
INPUT: Rank by decreasing k off the items listed here. Rank them, then answer with their labels in that order.
OUTPUT: II, I, III
(II: 0.0282 s⁻¹, I: 0.00733 s⁻¹, III: 0.00383 s⁻¹)

----------
Target: human D2L receptors (Homo sapiens)
Assay: Competition kinetic binding with PPHT-red tracer (TR-FRET, Motulsky-Mahan)
Settings: 37 °C, 100 μM GppNHp, 12.5 nM PPHT-red tracer, CHO-D2L membranes; mean ± s.e.m., four experiments
Where a name gives a salt, the structure may show the parent alone.
EXPERIMENTAL READOUT: k on

# annotated cases, reported k on shown
{"columns": ["MOLECULE", "EXPERIMENTAL READOUT", "EXPERIMENTAL VALUE"],
 "data": [
  ["O=C(CCCN1CC=C(n2c(=O)[nH]c3ccccc32)CC1)c1ccc(F)cc1 [Droperidol, droperidol]", "k on", "2.01 ± 0.38 × 10^9 M^−1 min^−1"],
  ["Cc1nc2n(c(=O)c1CCN1CCC(c3noc4cc(F)ccc34)CC1)CCCC2O (stereo not shown) [Paliperidone, paliperidone]", "k on", "1.80 ± 0.29 × 10^8 M^−1 min^−1"],
  ["CCc1c(C)[nH]c2c1C(=O)C(CN1CCOCC1)CC2 (stereo not shown) [Molindone, molindone hydrochloride]", "k on", "8.69 ± 2.6 × 10^7 M^−1 min^−1"]
]}

Continue with the next molecule.
Response field k on (human D2L receptors (Homo sapiens)) for item OCCN1CCN(CCCN2c3ccccc3Sc3ccc(Cl)cc32)CC1 [Perphenazine, perphenazine] : 1.29 ± 0.17 × 10^9 M^−1 min^−1

----------
Counter-ions that a name gives are not always drawn.
Kd values recorded for human D2L receptors (Homo sapiens)
EXPERIMENTAL READOUT: Kd (nM)

These recorded examples may help you get a feel for the data.
{"columns": ["COMPOUND", "SUBJECT OF TEST", "EXPERIMENTAL VALUE"],
 "data": [
  ["CCc1c(C)[nH]c2c1C(=O)C(CN1CCOCC1)CC2 (stereo not drawn) [Molindone, molindone hydrochloride]", "human D2L receptors (Homo sapiens)", 20.4],
  ["CN1CCN(CCCN2c3ccccc3Sc3ccc(C(F)(F)F)cc32)CC1 [Trifluoperazine, trifluoperazine dihydrochloride]", "human D2L receptors (Homo sapiens)", 0.204],
  ["O=C(CCCN1CC=C(n2c(=O)[nH]c3ccccc32)CC1)c1ccc(F)cc1 [Droperidol, droperidol]", "human D2L receptors (Homo sapiens)", 0.195],
  ["OCCN1CCN(CCC=C2c3ccccc3Sc3ccc(C(F)(F)F)cc32)CC1 [Flupenthixol, flupenthixol dihydrochloride]", "human D2L receptors (Homo sapiens)", 0.214]
]}

a: OCCN1CCN(CCCN2c3ccccc3Sc3ccc(Cl)cc32)CC1 [Perphenazine, perphenazine]
b: Cc1nc2n(c(=O)c1CCN1CCC(c3noc4cc(F)ccc34)CC1)CCCC2O (stereo not drawn) [Paliperidone, paliperidone]
INPUT: Select one. Lower Kd: a or b Record your answer as the label of the chosen record.
OUTPUT: a
(a: 0.186 nM, b: 2.51 nM)

Source: paper PMC5624946
